Measured melting point by item

CCCn1c(=O)c2[nH]c(-c3ccc(OCC(=O)Nc4ccc(Br)cc4)cc3)nc2n(CCC)c1=O    > 310 °C

For this compound ( `CCCn1c(=O)c2[nH]c(-c3ccc(OCC(=O)N(Cc4ccccc4)Cc4ccccc4)cc3)nc2n(CCC)c1=O` ), measured melting point is 230 °C

For this compound ( `CCCn1c(=O)c2[nH]c(-c3ccc(OCC(=O)Nc4ccc([N+](=O)[O-])cc4)cc3)nc2n(CCC)c1=O` ), measured melting point is 307 °C

For this compound ( `CC(=O)c1ccccc1NC(=O)/C=C/c1ccc(-c2nc3c([nH]2)c(=O)n(CC2CCCCC2)c(=O)n3CC2CCCCC2)cc1` ), measured melting point is 305 °C

* * *

# Target Of Assay: recombinant human A2A receptors (hA2A) (Homo sapiens)
# Sequence (P29274 whole entry): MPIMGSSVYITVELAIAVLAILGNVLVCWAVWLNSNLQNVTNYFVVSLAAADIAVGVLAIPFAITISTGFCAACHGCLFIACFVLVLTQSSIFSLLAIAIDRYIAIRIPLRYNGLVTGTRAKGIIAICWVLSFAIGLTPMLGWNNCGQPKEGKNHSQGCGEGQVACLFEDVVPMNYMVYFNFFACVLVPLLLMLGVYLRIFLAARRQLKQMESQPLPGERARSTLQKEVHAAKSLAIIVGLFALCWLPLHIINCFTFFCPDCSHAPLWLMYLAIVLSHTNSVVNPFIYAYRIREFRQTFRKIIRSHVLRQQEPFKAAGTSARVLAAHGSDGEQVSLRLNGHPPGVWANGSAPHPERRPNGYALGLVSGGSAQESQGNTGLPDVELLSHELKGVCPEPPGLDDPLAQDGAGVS
# Protocol Description: Radioligand binding (125I-ZM241385) at recombinant human A2A receptors in HEK-293 cells
# Condition Set: read-out: hA2A Ki or IC50; Table 2
Experimental Endpoint: Ki (nM)
Write down the numeric answer in nM and omit the unit.

Example results:
CCCn1c(=O)c2[nH]c(-c3ccc(OCC(=O)Nc4ccc(C(F)(F)F)cc4)cc3)nc2n(CCC)c1=O [Compound 29]    238
CCCn1c(=O)c2[nH]c(-c3ccc(OCC(=O)Nc4cccc(C(C)=O)c4)cc3)nc2n(CCC)c1=O [Compound 19]    58.9
CCCn1c(=O)c2[nH]c(-c3ccc(OCC(=O)Nc4ccc(C(C)=O)cc4)cc3)nc2n(CCC)c1=O [Compound 20]    112
CCCn1c(=O)c2[nH]c(-c3ccc(OCC(=O)Nc4ccccc4C(C)=O)cc3)nc2n(CCC)c1=O [Compound 18]    431

For this compound ( CCCn1c(=O)c2[nH]c(-c3ccc(OCC(=O)Nc4ccccc4)cc3)nc2n(CCC)c1=O [Compound 12] ), measured Ki is 25.8

* * *

# Target Of Assay: recombinant human A2A receptors (hA2A) (Homo sapiens)
# Protocol Description: Radioligand binding (125I-ZM241385) at recombinant human A2A receptors in HEK-293 cells
# Condition Set: read-out: hA2A Ki or IC50; Table 2
Measured Ki by item
Write down the numeric answer in nM and omit the unit.

Example results:
CCCn1c(=O)c2[nH]c(-c3ccc(OCC(=O)Nc4ccc(F)cc4)cc3)nc2n(CCC)c1=O    16.6
CCCn1c(=O)c2[nH]c(-c3ccc(OCC(=O)Nc4ccc(I)cc4)cc3)nc2n(CCC)c1=O    5140
CCCn1c(=O)c2[nH]c(-c3ccc(OCC(=O)N(Cc4ccccc4)Cc4ccccc4)cc3)nc2n(CCC)c1=O    642
CCCn1c(=O)c2[nH]c(-c3ccc(OCC(=O)Nc4ccc([N+](=O)[O-])cc4)cc3)nc2n(CCC)c1=O    70
CCCn1c(=O)c2[nH]c(-c3ccc(OCC(=O)Nc4ccc(Br)cc4)cc3)nc2n(CCC)c1=O    1640

For this compound ( `CCCn1c(=O)c2[nH]c(-c3ccc(OCC(=O)Nc4ccc(C(=O)OC)cc4)cc3)nc2n(CCC)c1=O` ), measured Ki is 3100

For this compound ( `CCCn1c(=O)c2[nH]c(-c3ccc(OCC(=O)Nc4ccc(Cl)cc4)cc3)nc2n(CCC)c1=O` ), measured Ki is 187

Values compiled from patent US6545002B1.
